- assayOverview: Compound was tested for in vitro inhibitory activity against the bacterial enzyme UDP-N-acetylmuramate dehydrogenase
I'd appreciate it if you could supply pIC50 values for the items below.
Give bare numbers, as −log10 of the molar value.

[[record]]
compound = "CCCC[C@H](C(=O)O)N1C(=O)C(C)SC1c1cccc(Oc2ccc(C(C)(C)C)cc2)c1 (single isomer, unassigned)"
observedvalue = 5.00


Required: pIC50, one value per compound below.
1. CCCC[C@H](C(=O)O)N1C(=O)C(CC(=O)NNc2ccccc2)SC1c1cccc(Oc2ccc(C(C)(C)C)cc2)c1 (stereo partly specified)
2. CCCC[C@@H](C(=O)O)N1C(=O)CSC1c1cccc(Oc2ccc(C(C)(C)C)cc2)c1 (stereo partly specified)

1: 5.11; 2: 4.55

Go through the list and state pIC50 for each entry.
1. CCCC[C@H](C(=O)O)N1C(=O)CSC1c1cccc(Oc2ccc(C(C)(C)C)cc2)c1 (stereo partly specified)
2. CCCC[C@@H](C(=O)O)N1C(=O)C(C)SC1c1cccc(Oc2ccc(C(C)(C)C)cc2)c1 (stereo partly specified)

1: 5.11; 2: 4.85

I have this compound here, CCCC[C@@H](C(=O)O)N1C(=O)C(CC(=O)NNc2ccccc2)SC1c1cccc(Oc2ccc(C(C)(C)C)cc2)c1 (stereo partly specified) , and I need its recorded pIC50. 4.96
